Let's look at some compounds and their measured TGI.
# System: BT-549 breast
# testDescription: NCI tumour cell line growth inhibition, 48 h
// units = µM; emit number, no label

These recorded examples may help you get a feel for the data.
{"columns": ["compound", "systemName", "resultUnit", "dataValue"],
 "data": [
  ["N#Cc1c(NC(=O)c2ccc(C(F)(F)F)cc2)sc2c1CCC(=O)C2", "BT-549 breast", "µM", 2.51],
  ["O=C1CCC(N2Cc3cc(CC(=O)Nc4ccc(N5CCCCC5)cc4)ccc3C2=O)C(=O)N1 (centres undefined)", "BT-549 breast", "µM", 0.927]
]}

Now consider the entry below.
Exercise: For the compound shown here, Cn1cc(-c2cc(N)n3nc(-c4c[nH]c5ccccc45)cc3n2)c2ccccc21 , give the reported TGI.
Key: 29.8
